B1: Chromodomain-helicase-DNA-binding protein 4, residues 365 to 417; numbered along this chain, Q14839 (parent)
chain: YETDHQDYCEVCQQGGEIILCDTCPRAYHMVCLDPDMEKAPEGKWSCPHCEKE

# Variants of: B1
# Test method notes: abundance fitness (aPCA) (normalised: wild type 0, dead -1); higher = more abundant; growth selection in yeast, the domain comes from the species named
# Experimental context: Homo sapiens
Classify as follows. Reported abundance fitness greater than or equal to -0.3: class 1. Reported abundance fitness below: class 0.

Some entries whose results are on file:
{"Mutant designation": "T3R", "Group label": "class 1"}
{"Mutant designation": "C47R", "Group label": "class 0"}
{"Mutant designation": "C24W", "Group label": "class 0"}
{"Mutant designation": "E38V", "Group label": "class 1"}
{"Mutant designation": "Q13G", "Group label": "class 1"}

Please turn your attention to the following entry.
Prompt line: Kindly determine if abundance fitness recorded for T3N is above or exactly -0.3.
Response line: class 1
